System: HCT-116
MEASUREMENT_DESCRIPTION: NCI tumour cell line growth inhibition, 48 h
Calls of active or inactive are those of the source. Rule as the data show it: active = GI50 up to about 1.1 µM and inactive = higher.
Collected GI50 values appear next to each entry.
READOUT: GI50

| COMPOUND | REPORTED_RESULT |
| --- | --- |
| O=[N+]([O-])c1ccc(NN/N=N/c2ccc(-c3nc4ccccc4[nH]3)cc2)c([N+](=O)[O-])c1 | 26.7 µM (inactive) |
| Nc1ccc2c(c1)N(C(=O)CCCC(=O)N1CC(CCl)c3ccc(N)cc31)CC2CCl (stereo not given) | 0.394 µM (active) |
| O=C(O)CCc1nc2c(n1-c1ccccc1)C(=O)c1ccccc1C2=O | 50.2 µM (inactive) |
| C/C=C(/CBr)CCC(Br)C(C)(C)Cl.C/C=C(\CBr)CCC(Br)C(C)(C)Cl (stereo not given) | > 10 µM (inactive) |
| CC1(CCCO)CCCCCC(C)(CCCO)C1=O (stereo not given) | > 100 µM (inactive) |
| Nc1ccccc1SC(C[N+](=O)[O-])c1ccc2c(c1)OCO2 (stereo not given) | 1.81 µM (inactive) |
| CC(C)=CCC[C@@H](C)C1=C(O)C(=O)C(C)=C(N[C@H](C)c2ccccc2)C1=O | 4.66 µM (inactive) |
| NC(CCCCN/C=C1/N=C(c2ccccc2)OC1=O)C(=O)O (stereo not given) | > 100 µM (inactive) |
| COc1ccc(CCc2cc(OC)c(O)c(OC)c2)cc1 | 59 µM (inactive) |
| COc1cc(C2Oc3cc(-c4oc5cc(O)cc(O)c5c(=O)c4O)ccc3OC2CO)ccc1O (stereo not given) [DEHYDROSILYLBIN] | 4.71 µM (inactive) |

###

Test system: HL-60
MEASUREMENT_DESCRIPTION: NCI tumour cell line growth inhibition, 48 h
Calls of active or inactive are those of the source. Cut-off read from the data, not from the text of the source: active = GI50 up to about 1.1 µM and inactive = higher.
Collected GI50 values appear next to each entry.

| COMPOUND | GI50 |
| --- | --- |
| O=C1CN2C(c3ccccc3)=NN(c3ccc([N+](=O)[O-])cc3)C2(c2ccccc2)c2cc(Cl)ccc2N1CC1CC1 (centres undefined) | < 0.01 µM (active) |
| COc1cccc2c1C(=O)c1c(O)c3c(c(O)c1C2=O)C[C@@](O)(C(=O)CO)CC3OC1CC(N(C)CCOCC(OC(C)=O)OC(C)=O)C(O)C(C)O1 (some centres undefined) | > 0.01 µM (active) |
| O=C1C2=Cc3ccccc3CCN2c2ccccc21 | 18.9 µM (inactive) |
| NC(=O)c1ncn(C2OC(CO)C(O)C2O)c1O (centres undefined) | 50.2 µM (inactive) |
| N=C(N)SCCCN | 1.87 µM (inactive) |
| CC1CN=C(Nc2ccc(S(N)(=O)=O)cc2)S1 (centres undefined) | > 100 µM (inactive) |
| CCOC(=O)c1ccc(/N=C2\S/C(=C\C(=S)Nc3ccccc3)N(c3ccccc3)\C2=N/c2ccc(C(=O)OCC)cc2)cc1 | > 100 µM (inactive) |
| c1cc2[se][se]c3c4cccc5[se][se]c(c(c1)c23)c54 | > 100 µM (inactive) |
| CCOC(=O)Cc1ccc(Nc2nc3cc(F)c(F)cc3nc2C(=O)OCC)cc1 | 39.3 µM (inactive) |
| NC(=O)N/N=C\CC(O)(C(F)(F)Cl)C(F)(F)Cl | > 10 µM (inactive) |
| O=C(CC1C(=O)Nc2ccccc2[S+]1[O-])Nc1ccc(Cl)cc1 (centres undefined) | 46.9 µM (inactive) |
| C=C(C)[C@H]1CC[C@@]23O[C@@H]2[C@@H](C[C@@]2(C)CC(=O)[C@H](CC(=O)C1)O2)OC(=O)[C@@]12CC[C@H](C(=C)C)CC(=O)C[C@H]4O[C@](C)(CC4=O)C[C@@H](OC3=O)[C@@H]1O2 [SINGARDIN] | > 100 µM (inactive) |
| COc1ccc2c(c1)CC1=C(O2)c2ccc(OC)cc2OC1 | > 100 µM (inactive) |
| COc1cc(C2c3cc4c(cc3[C@@H](Nc3ccc([N+](=O)[O-])cc3)C3COC(=O)[C@H]23)OCO4)cc(OC)c1O (some centres undefined) | 0.263 µM (active) |
| Cc1ccccc1Nc1nc2ccccc2nc1NS(=O)(=O)c1ccccc1 | > 100 µM (inactive) |
| O=C(NNC(=O)c1ccncc1)C(=O)Nc1cc(Cl)c(Cl)cc1Cl | > 100 µM (inactive) |
| COC(=O)c1cccc(OC)c1C#Cc1c(OC)cccc1OC | > 100 µM (inactive) |
| NC(=O)CC1(O)C=CC(=O)C=C1 | > 100 µM (inactive) |
| O=C1C(c2ccccc2)=C(c2ccccc2)C(c2ccc(Cc3ccc(C4=C(c5ccccc5)C(=O)C(c5ccccc5)=C4c4ccccc4)cc3)cc2)=C1c1ccccc1 | > 100 µM (inactive) |

###

Tested on: HT-29
MEASUREMENT_DESCRIPTION: NCI tumour cell line growth inhibition, 48 h
Activity calls are given as the source filed them. No stated cut-off is given here; in the data, active = GI50 up to about 1.1 µM and inactive = higher.
Classes used: 1 = active, 0 = inactive

| COMPOUND | CLASS_ASSIGNMENT |
| --- | --- |
| CCOC(=O)/C=C/C(Br)=C(Br)/C=C/C(=O)OCC | 0 |
| CC1(C)[N+]([O-])=[N+]([O-])C1(Br)c1ccccc1 (stereo unspecified) | 0 |
| COc1cccc(Nc2nc(N)nc(N)c2N)c1 | 0 |
| CC(NC1=NCCO1)c1ccsc1 (stereo unspecified) | 0 |
| CC(C)Oc1cccc(N2C(CCc3c[nH]c4ccc(Br)cc34)=NS(=O)(=O)c3cnccc32)c1 | 0 |
| CCOC(=O)Cc1ccc(Nc2nc3cc(F)c(F)cc3nc2C(=O)OCC)cc1 | 0 |
| COc1cc2cc3c4c(cc(OC)c(OC)c4c2cc1OC)CCN3C(=O)N(C)C | 0 |
| O=C1CC(c2ccc([N+](=O)[O-])cc2)C2(C(=O)NC(=S)NC2=O)C(c2ccc([N+](=O)[O-])cc2)C1 (stereo unspecified) | 0 |
| c1ccc(/C(=N/Nc2ccncn2)c2ccccn2)cc1 | 1 |
| COc1ccc(C[n+]2cccc(O)c2)cc1 | 0 |
| Cc1sc2nc3n(c(=O)c2c1C)N=CN(c1ccc(Cl)cc1)C3 | 0 |

###

Tested on: OVCAR-8
MEASUREMENT_DESCRIPTION: NCI tumour cell line growth inhibition, 48 h
Activity calls are given as the source filed them. Cut-off read from the data, not from the text of the source: active = GI50 up to about 1.1 µM and inactive = higher.
Collected GI50 values appear next to each entry.
READOUT: GI50

| COMPOUND | TESTED_SYSTEM | REPORTED_RESULT |
| --- | --- | --- |
| COc1cc(C2c3cc4c(cc3[C@@H](Nc3ccc([N+](=O)[O-])cc3)C3COC(=O)[C@H]23)OCO4)cc(OC)c1O (stereo not given in full) | OVCAR-8 | 1.83 µM (inactive) |
| COc1ccc(OC)c(NC(=O)C(=O)NNC(=O)c2sc(NNC(C)=O)nc2C)c1 | OVCAR-8 | 34.9 µM (inactive) |
| CCc1nc(N)nc(N)c1-c1ccc(N2CCOCC2)c(N=[N+]=[N-])c1 | OVCAR-8 | 61.7 µM (inactive) |
| NC(CCSCC(F)(F)F)C(=O)O (stereo not given) | OVCAR-8 | > 100 µM (inactive) |
| CC#CC(O)(C(=O)OC1CCCN(C)C1)C1=CC=CCC1 (stereo not given) | OVCAR-8 | > 100 µM (inactive) |

###

System: MDA-MB-231
MEASUREMENT_DESCRIPTION: NCI tumour cell line growth inhibition, 48 h
Activity calls are given as the source filed them. Rule as the data show it: active = GI50 up to about 1.1 µM and inactive = higher.
READOUT: GI50

| MOLECULE | READOUT | REPORTED_RESULT |
| --- | --- | --- |
| Cc1ccc(N(C(=O)Nc2ccc(F)c(Cl)c2)C2=NCC(C)S2)cc1 (stereo not given) | GI50 | > 100 µM (inactive) |
| O=C(c1ccccc1)C1C(c2ccccc2)N1S(=O)(=O)c1ccccc1 (stereo not given) | GI50 | > 100 µM (inactive) |
| CCOC(=O)/C=C/C(Br)=C(Br)/C=C/C(=O)OCC | GI50 | 16.3 µM (inactive) |
| CN1CCN(CCCCNc2cc3c4ccccc4c(NCCCCN4CCN(C)CC4)cc3c3ccccc23)CC1 | GI50 | 1.62 µM (inactive) |
| CC(=O)OCC1OC(n2c(C)cc(C)c(C#N)c2=S)C(OC(C)=O)C(OC(C)=O)C1OC(C)=O (stereo not given) | GI50 | > 100 µM (inactive) |
| Clc1ccc(OCc2nnc(CCCCCCCCc3nnc(COc4ccc(Cl)cc4Cl)o3)o2)c(Cl)c1 | GI50 | > 100 µM (inactive) |
| COc1cc2c(cc1OC)C(=O)/C(=C/c1ccc([N+](=O)[O-])cc1)CC2 | GI50 | > 10 µM (inactive) |
| CCOC(=O)C1=c2[nH]c3cccc4cccc(c43)n2C(=O)CC1c1ccccc1 (stereo not given) | GI50 | > 100 µM (inactive) |
| COc1ccc(Nc2c[nH]c(=O)[nH]c2=O)cc1 | GI50 | > 100 µM (inactive) |
| CCc1nc(N)nc(N)c1-c1ccc(N2CCOCC2)c(N=[N+]=[N-])c1 | GI50 | > 100 µM (inactive) |
